- Test system: PPARδ (Homo sapiens, UniProt Q03181)
- Construct: fused to amino acids 147-441 of PPARδ downstream of CMV promoter; expressed in transfected cells; host or cells: HEK293 cells, transiently transfected with pFACMV-PPARδ using Fugene
- Sequence (Q03181 147-441): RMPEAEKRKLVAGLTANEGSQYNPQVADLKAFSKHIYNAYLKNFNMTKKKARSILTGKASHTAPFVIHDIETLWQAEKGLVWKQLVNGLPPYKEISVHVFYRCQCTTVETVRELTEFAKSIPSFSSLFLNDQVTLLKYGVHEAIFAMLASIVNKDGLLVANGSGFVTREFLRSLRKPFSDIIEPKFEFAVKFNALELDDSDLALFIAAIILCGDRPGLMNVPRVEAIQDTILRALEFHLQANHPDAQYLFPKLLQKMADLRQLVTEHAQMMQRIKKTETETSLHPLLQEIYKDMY
- Test method notes: Transactivation assay (PPARδ GAL4 assay) in transiently transfected HEK293 cells
- Assay type: cell-based
- Run conditions: luciferase reporter, Table 1
pEC50: −log10 of the molar value. Where a name gives a salt, the structure may show the parent alone.
Parameter measured: pEC50

Fill in the blank: the reported pEC50 of CCc1cc(C(=O)c2ccc(Cl)cc2)c(NC(=O)C(C)N(C)CC(=O)O)s1 (stereo not shown) is ____. 6.00 to 7.00

Bench note: what pEC50 did CCc1cc(C(=O)c2ccc(OC)cc2)c(NC(=O)CN(C)CC(=O)O)s1 [Example 73, hydrochloride] show? 4.52 to 6.00

Request the reported pEC50 associated with O=C(O)CSCC(=O)Nc1sc(Cl)cc1C(=O)c1ccc(OC(F)(F)F)cc1 > 7.00

Entry CCc1cc(C(=O)c2ccc(OC(F)(F)F)cc2)c(NC(=O)CSc2ccc(CCC(=O)O)cc2)s1 has what pEC50? 6.00 to 7.00

* * *

So I've got a bunch of compounds here, and I need their pEC50 values.
- Test system: PPARδ (Homo sapiens)
- Construct: fused to amino acids 147-441 of PPARδ downstream of CMV promoter; expressed in transfected cells; host or cells: HEK293 cells, transiently transfected with pFACMV-PPARδ using Fugene
- Sequence (Q03181 147-441): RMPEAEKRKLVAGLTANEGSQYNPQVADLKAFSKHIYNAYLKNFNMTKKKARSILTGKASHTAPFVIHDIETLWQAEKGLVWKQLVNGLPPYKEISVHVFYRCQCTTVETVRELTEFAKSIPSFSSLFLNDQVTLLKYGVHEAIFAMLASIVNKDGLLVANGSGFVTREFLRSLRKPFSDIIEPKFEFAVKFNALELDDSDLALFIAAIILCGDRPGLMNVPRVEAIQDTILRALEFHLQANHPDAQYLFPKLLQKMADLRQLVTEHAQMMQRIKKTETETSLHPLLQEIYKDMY
- Test method notes: Transactivation assay (PPARδ GAL4 assay) in transiently transfected HEK293 cells
- Type: cell-based
- Run conditions: luciferase reporter, Table 1
pEC50: −log10 of the molar value.

Tell me the measured pEC50 of CCc1cc(C(=O)c2cccc3ccccc23)c(NC(=O)CSCC(=O)O)s1 , please. 4.52 to 6.00

I am curious: what pEC50 value has been reported for CCc1cc(C(=O)c2ccccc2)c(NC(=O)CC(C)(C)CC(=O)O)s1 ? 4.52 to 6.00

Given the entry CCc1cc(C(=O)c2cnc(OC(C)C)c(Cl)c2)c(NC(=O)CSCC(=O)O)s1 , report its measured pEC50. 6.00 to 7.00

# query: pEC50 of entry COc1ccc(C(=O)c2cc(C)sc2NC(=O)CSCC(=O)O)cc1 4.52 to 6.00

Recorded pEC50 for CCc1cc(C(=O)c2ccc(F)cc2)c(NC(=O)CC(C)(C)CC(=O)O)s1 , please? 4.52 to 6.00

* * *

I'd appreciate it if you could supply EC50 values for the items below.
- Test system: PPARδ (Homo sapiens)
- Construct: fused to amino acids 147-441 of PPARδ downstream of CMV promoter; expressed in transfected cells; host or cells: HEK293 cells, transiently transfected with pFACMV-PPARδ using Fugene
- Test method notes: Transactivation assay (PPARδ GAL4 assay) in transiently transfected HEK293 cells
- Format: cell-based
- Run conditions: luciferase reporter, Table 1
- Procedure: Compounds were screened for their functional potency in transiently transfected HEK293 cells for their ability to activate PPAR subtypes. […] 100 μl of luciferase reagent (Bright Glo, Promega) was added directly to each well, and the luminescence determined using a suitable luminometer. To measure the selectivity of compounds, their ability to transactivate GAL4 fusions of PPARα LBD and PPARγ LBD was determined. […] EC50 values were calculated by fitting of the data to a sigmoidal dose response curve.

Look at this compound and give its reported EC50. CCc1cc(C(=O)c2ccc(OC(C)C)nc2)c(NC(=O)CSCC(=O)O)s1 100 to 1000 nM

Would you kindly share the measured EC50 for CCc1cc(C(=O)c2ccc(C)c(C)c2)c(NC(=O)CSCC(=O)O)s1 ? 1000 to 30000 nM

Look up EC50 for this compound: CCc1cc(C(=O)c2ccc(-c3cnn(C)c3)cc2)c(NC(=O)CSCC(=O)O)s1 1000 to 30000 nM

Could you tell me which EC50 is on file for CCc1cc(C(=O)c2ccc(OC)cc2)c(NC(=O)CSc2cccc(OCC(=O)O)c2)s1 ? 1000 to 30000 nM

* * *

Would you mind telling me the reported EC50 of each entry?
- Test system: PPARδ (Homo sapiens, UniProt Q03181)
- Construct: fused to amino acids 147-441 of PPARδ downstream of CMV promoter; expressed in transfected cells; host or cells: HEK293 cells, transiently transfected with pFACMV-PPARδ using Fugene
- Test method notes: Transactivation assay (PPARδ GAL4 assay) in transiently transfected HEK293 cells
- Format: cell-based
- Run conditions: luciferase reporter, Table 1

Form field: EC50 recorded for CCc1cc(C(=O)c2ccc(-c3ccccc3)cc2)c(NC(=O)CSCC(=O)O)s1 with PPARδ (Homo sapiens, UniProt Q03181) (enter value) < 100 nM

Which measured EC50 belongs to CCc1cc(C(=O)c2ccc(OC)cc2)c(NC(=O)C(C)SCC(=O)O)s1 (centres unmarked) , tested on PPARδ (Homo sapiens, UniProt Q03181)? 100 to 1000 nM

Please provide the recorded EC50 for CCc1cc(C(=O)c2ccc(C)c(C)c2)c(NC(=O)CC(C)(C)CC(=O)O)s1 , tested on PPARδ (Homo sapiens, UniProt Q03181). 1000 to 30000 nM

What measured EC50 is associated with CCc1cc(C(=O)c2cccc(Br)c2)c(NC(=O)CSCC(=O)O)s1 on PPARδ (Homo sapiens, UniProt Q03181)? 100 to 1000 nM

Under PPARδ (Homo sapiens, UniProt Q03181): EC50 value of CCc1cc(C(=O)c2ccc(-c3ccc(F)cc3)cc2)c(NC(=O)CNC(C)(C)C(=O)O)s1 ? < 100 nM

API: value(readout= EC50, system= PPARδ (Homo sapiens, UniProt Q03181), query= CCc1cc(C(=O)c2ccc(OC)cc2)c(NC(=O)CCCCC(=O)O)s1 ) 1000 to 30000 nM

Give the reported EC50 for CCc1cc(C(=O)c2ccc(OC)cc2)c(NC(=O)CSc2ccc(OCC(=O)O)c(C)c2)s1 (system: PPARδ (Homo sapiens, UniProt Q03181)). 1000 to 30000 nM

// fetch PPARδ (Homo sapiens, UniProt Q03181) EC50 for CCc1cc(C(=O)c2ccc3ccccc3c2)c(NC(=O)CSCC(=O)O)s1 100 to 1000 nM

* * *

- Test system: PPARδ (Homo sapiens)
- Construct: fused to amino acids 147-441 of PPARδ downstream of CMV promoter; expressed in transfected cells; host or cells: HEK293 cells, transiently transfected with pFACMV-PPARδ using Fugene
- Test method notes: Transactivation assay (PPARδ GAL4 assay) in transiently transfected HEK293 cells
- Assay type: cell-based
- Run conditions: luciferase reporter, Table 1
Please go through the items and note down their EC50.

Which measured EC50 value corresponds to CCc1cc(C(=O)c2ccc(Oc3ccccc3)cc2)c(NC(=O)CC(C)(C)CC(=O)O)s1 ? 1 to 30 µM

What EC50 value was documented for this molecule, CCc1cc(C(=O)c2ccc(C(F)(F)F)cc2)c(NC(=O)CSCC(=O)O)s1 ? < 0.1 µM

Value lookup for EC50; key = CCc1cc(C(=O)c2ccc(Cl)c(Cl)c2)c(NC(=O)CSCC(=O)O)s1 < 0.1 µM

EC50 for CCc1cc(C(=O)c2ccc(Br)cc2)c(NC(=O)CSCC(=O)O)s1 ? < 0.1 µM

EC50 lookup needed for CCc1cc(C(=O)c2ccc(OC(F)(F)F)cc2)c(NC(=O)CN[C@@H](C(=O)O)C(C)C)s1 [Example 78] , thanks. 1 to 30 µM

// lookup EC50 for O=C(O)CSCC(=O)Nc1sc(C2CC2)cc1C(=O)c1ccc(F)cc1 1 to 30 µM

# query: EC50 of entry COc1ccc(C(=O)c2ccsc2NC(=O)CSCC(=O)O)cc1 1 to 30 µM

Field request: EC50 | item: CCc1cc(C(=O)c2ccc(OC(F)(F)F)cc2)c(NC(=O)CNC(C)(C)C(=O)O)s1 < 0.1 µM
